protocolText: Components of the Cytosolic LPS Sensing Pathway: Gene Identification via Genome-wide siRNA Screen
details: RAW264.7 macrophages, IL-1a HTRF, actives lie on both sides, screened at 100 nM (by protocol), cells primed 5 h with Pam3CSK4 first
The whole screen tested about 53,000 sequences, of which about 3,700 (7%) were called active.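 How the source made its calls: active means gene knockdowns whose robust z-score for IL-1 alpha signal is at least 2 or at most -2, so actives lie on both sides; inactive means the rest.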 Shown is part of a subset that was picked to be rich in actives.
In this exercise, the only acceptable responses are t (active), f (inactive)

Query string: Which result was noted for this sequence in the test: GGACCAGACAGGAAGUAUUTT against Snx20
Result string: t

Query string: And the next one, GGUCGUGAUAAACAUAUCATT against Cep85 ?
Result string: f

Query string: And the next one, GCAUCAAUUGUCAGGAAAUTT against Rev3l ?
Result string: f

Query string: And the next one, GGAACAGAAGUCAAGUGGATT against Acsm5 ?
Result string: t

Query string: And the next one, GGAACUUCCCUAUAGUGAATT against Hdac3 ?
Result string: f

Query string: And the next one, GGUAUAAUUGGAAUUGUGATT against Morc1 ?
Result string: f

Query string: And the next one, GGAGAAAGCCAAAUUUAACTT against Slc17a6 ?
Result string: f

Query string: And the next one, CGCAGUCCUUGACAUUAAATT against Rab3a ?
Result string: f

Query string: And the next one, UUUACCUUGUCACCGUCUUTT against Olfr1029 ?
Result string: f

Query string: And the next one, GGUGCUUUGUUAUCCAUAATT against Tnfrsf26 ?
Result string: t

More entries:
Query string: Which result was noted for this sequence in the test: GGCAUAGGACUAGAAGCAGTT against Rsrc2
Result string: f

Query string: And the next one, GGAGCUUUCUCAGAGGUGUTT against Camk1g ?
Result string: f

Query string: And the next one, GCAUCGUGUGCAAGAUCCUTT against Atp4b ?
Result string: t

Query string: And the next one, GGUUUGCAAUAAUUUUCCCTT against Cyp2c66 ?
Result string: f

Query string: And the next one, CGUGACAUGCACGACUUCUTT against Tac2 ?
Result string: f

Query string: And the next one, CGGCAAAAUUAGCUAUUCATT against Exosc4 ?
Result string: f

Query string: And the next one, GGGUUUUGAAAGAGGAAAATT against Osbpl8 ?
Result string: f

Query string: And the next one, GGAACUCUCAAGAGAGAAUTT against Dnajc14 ?
Result string: f

Query string: And the next one, GGCUUUGAUGUCAGCACUGTT against Ngrn ?
Result string: f

Query string: And the next one, GGCAGCACCAUCGUCUAAUTT against 4930432E11Rik ?
Result string: f
